- Experimental Target: Human Factor XIIa (Homo sapiens)
- Construct: purchased Enzyme Research Laboratories
- Protocol Summary: Determination of FXIIa inhibition (in vitro IC50 assay, fluorogenic substrate H-DPro-Phe-Arg-AFC)
- Format: biochemical
- Test Conditions: human Factor XIIa; fluorogenic substrate H-DPro-Phe-Arg-AFC at Km concentration; 5 min, 25 °C; class symbols; read-out: Human FXIIa IC50
Outcome Measure: IC50

// below: answered compounds
{"Compound": "Cn1ccc(CCC(=O)N2CC3(COc4ccn(C)c(=O)c4)CC2(CNc2cccc4c(N)nccc24)C3)cc1=O", "IC50": "10 to 100 nM"}
{"Compound": "Cc1cc(OCC23CN(C(=O)Nc4ccc5c(c4)CCCO5)C(CN(C)c4cccc5c(N)nccc45)(C2)C3)cc(=O)n1C", "IC50": "10 to 100 nM"}
{"Compound": "Cc1cc(OCC23CN(C(=O)N4CCC(c5ccccc5)CC4)C(CNc4cccc5c(N)nccc45)(C2)C3)cc(=O)n1C", "IC50": "10 to 100 nM"}
{"Compound": "Cn1ccc(OCC23CC(CNc4cccc5c(N)nccc45)(CN2C(=O)CCC2CCCCC2)C3)cc1=O", "IC50": "100 to 300 nM"}
{"Compound": "Cc1cc(OCC23CN(C(=O)N4CCCC5(C4)CC5(F)F)C(CNc4cccc5c(N)nccc45)(C2)C3)cc(=O)n1C (stereo not shown)", "IC50": "10 to 100 nM"}

Ask | I would be grateful if you could share the reported IC50 for Cc1cc(OCC23CN(C(=O)N(C)[C@@H]4CCOC4)C(CNc4cccc5c(N)nccc45)(C2)C3)cc(=O)n1C .
Reply | 10 to 100 nM

Ask | I would be grateful if you could share the reported IC50 for Cn1ccc(OCC23CN(C(=O)C[C@H]4CCOC4)C(CNc4cccc5c(N)nccc45)(C2)C3)cc1=O .
Reply | 10 to 100 nM

====

- Experimental Target: human PKal (Homo sapiens, UniProt P03952)
- Construct: FXIIa converts plasma prekallikrein (PK) to plasma kallikrein (PKa)
- Sequence (P03952 391-638 limits assumed): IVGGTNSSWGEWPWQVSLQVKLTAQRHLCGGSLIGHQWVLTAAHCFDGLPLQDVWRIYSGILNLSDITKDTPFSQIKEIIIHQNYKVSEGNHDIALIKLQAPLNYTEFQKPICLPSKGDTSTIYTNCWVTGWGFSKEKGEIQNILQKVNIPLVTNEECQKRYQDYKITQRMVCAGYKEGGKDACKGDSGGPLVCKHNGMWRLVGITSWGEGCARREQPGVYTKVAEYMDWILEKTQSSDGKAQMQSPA
- Sequence (P03952 20-390 partner limits assumed): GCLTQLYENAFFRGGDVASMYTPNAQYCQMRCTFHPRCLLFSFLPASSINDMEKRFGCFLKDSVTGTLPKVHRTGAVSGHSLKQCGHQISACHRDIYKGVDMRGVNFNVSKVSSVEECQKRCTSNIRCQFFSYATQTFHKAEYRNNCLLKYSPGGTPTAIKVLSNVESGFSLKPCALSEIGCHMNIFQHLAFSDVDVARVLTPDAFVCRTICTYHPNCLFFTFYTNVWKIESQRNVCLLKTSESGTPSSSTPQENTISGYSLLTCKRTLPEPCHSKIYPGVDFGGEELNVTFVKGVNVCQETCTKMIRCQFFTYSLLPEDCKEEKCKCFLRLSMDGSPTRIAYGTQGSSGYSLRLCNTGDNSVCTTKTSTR
- Protocol Summary: Determination of related protease inhibition: plasma kallikrein
- Assay type: biochemical
Outcome Measure: IC50

Ask | I would be grateful if you could share the reported IC50 for Cn1ccc(OCC23CN(C(=O)NC4(c5ccccc5)CC4)C(CNc4cccc5c(N)nccc45)(C2)C3)cc1=O [Example 30] .
Reply | 10 to 40 µM

====

- Experimental Target: human plasmin (Homo sapiens)
- Sequence (P00747 581-810 limits assumed): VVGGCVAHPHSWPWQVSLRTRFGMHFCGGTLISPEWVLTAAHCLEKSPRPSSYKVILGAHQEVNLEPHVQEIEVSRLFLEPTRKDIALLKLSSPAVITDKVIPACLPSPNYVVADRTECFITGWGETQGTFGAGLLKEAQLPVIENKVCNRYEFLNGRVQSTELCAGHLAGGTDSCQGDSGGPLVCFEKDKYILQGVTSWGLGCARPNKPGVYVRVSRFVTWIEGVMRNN
- Sequence (P00747 97-580 partner limits assumed): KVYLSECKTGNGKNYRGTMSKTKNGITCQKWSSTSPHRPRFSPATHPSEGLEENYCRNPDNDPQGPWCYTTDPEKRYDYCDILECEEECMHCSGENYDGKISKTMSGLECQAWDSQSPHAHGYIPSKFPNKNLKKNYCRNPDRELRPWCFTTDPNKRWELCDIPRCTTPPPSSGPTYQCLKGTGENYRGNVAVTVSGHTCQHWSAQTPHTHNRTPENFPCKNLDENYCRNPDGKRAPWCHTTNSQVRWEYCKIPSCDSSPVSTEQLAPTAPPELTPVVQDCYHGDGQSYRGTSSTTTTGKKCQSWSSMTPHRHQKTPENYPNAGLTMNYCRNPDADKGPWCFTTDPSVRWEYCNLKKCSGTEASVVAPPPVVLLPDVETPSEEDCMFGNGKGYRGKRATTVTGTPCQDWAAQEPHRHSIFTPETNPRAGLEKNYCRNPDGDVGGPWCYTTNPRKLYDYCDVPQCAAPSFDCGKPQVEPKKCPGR
- Protocol Summary: Determination of related protease inhibition: plasmin
- Type: biochemical
pIC50: −log10 of the molar value.
Outcome Measure: pIC50

Ask | I would be grateful if you could share the reported pIC50 for Cn1ccc(OCC23CN(C(=O)NC4(c5ccccc5)CC4)C(CNc4cccc5c(N)nccc45)(C2)C3)cc1=O .
Reply | 4.40 to 5.00

====

Listing: IC50 of selected compounds
- Experimental Target: Human Factor XIIa (Homo sapiens, UniProt P00748)
- Construct: purchased Enzyme Research Laboratories
- Sequence (P00748 373-615 limits assumed): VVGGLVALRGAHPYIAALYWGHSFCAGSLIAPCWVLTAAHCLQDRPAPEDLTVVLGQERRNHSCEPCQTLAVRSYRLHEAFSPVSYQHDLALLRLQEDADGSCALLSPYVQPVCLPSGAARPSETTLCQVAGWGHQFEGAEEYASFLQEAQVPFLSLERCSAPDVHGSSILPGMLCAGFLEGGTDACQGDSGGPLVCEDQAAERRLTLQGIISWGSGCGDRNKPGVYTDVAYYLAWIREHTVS
- Sequence (P00748 20-372 partner limits assumed): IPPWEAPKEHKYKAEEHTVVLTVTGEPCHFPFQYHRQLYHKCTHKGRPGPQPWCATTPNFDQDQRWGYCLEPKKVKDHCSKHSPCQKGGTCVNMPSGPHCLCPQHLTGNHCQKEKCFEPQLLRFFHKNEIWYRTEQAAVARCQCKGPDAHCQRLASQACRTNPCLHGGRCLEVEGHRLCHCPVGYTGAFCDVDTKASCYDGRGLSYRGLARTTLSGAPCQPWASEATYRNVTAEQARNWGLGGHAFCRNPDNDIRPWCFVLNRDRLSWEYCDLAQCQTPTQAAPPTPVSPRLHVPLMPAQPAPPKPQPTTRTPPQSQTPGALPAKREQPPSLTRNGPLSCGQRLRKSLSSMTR
- Protocol Summary: Determination of FXIIa inhibition (in vitro IC50 assay, fluorogenic substrate H-DPro-Phe-Arg-AFC)
- Assay type: biochemical
- Test Conditions: human Factor XIIa; fluorogenic substrate H-DPro-Phe-Arg-AFC at Km concentration; 5 min, 25 °C; class symbols; read-out: Human FXIIa IC50

{"Compound": "Cn1ccc(OCC23CN(C(=O)N4CCCc5ccccc54)C(CNc4cccc5c(N)nccc45)(C2)C3)cc1=O [Example 36]", "IC50": "100 to 300 nM"}

Ask | I would be grateful if you could share the reported IC50 for C[C@H](c1ccccc1)N(C)C(=O)N1CC2(COc3ccn(C)c(=O)c3)CC1(CNc1cccc3c(N)nccc13)C2 [Example 43] .
Reply | 1 to 10 nM

Ask | I would be grateful if you could share the reported IC50 for Cn1ccc(OCC23CN(C(=O)NCCC4CCC4)C(CNc4cccc5c(N)nccc45)(C2)C3)cc1=O [Example 81] .
Reply | 10 to 100 nM

Ask | I would be grateful if you could share the reported IC50 for Cn1ccc(OCC23CN(C(=O)C4(Cc5ccccc5)CC4)C(CNc4cccc5c(N)nccc45)(C2)C3)cc1=O [Example 8] .
Reply | 10 to 100 nM

Ask | I would be grateful if you could share the reported IC50 for Cn1ccc(OCC23CN(C(=O)C[C@@H]4CCOC4)C(CNc4cccc5c(N)nccc45)(C2)C3)cc1=O [Example 11] .
Reply | 10 to 100 nM

Ask | I would be grateful if you could share the reported IC50 for Cc1ncccc1NCC12CC(COc3cc(C)n(C)c(=O)c3)(CN1C(=O)NC1(c3ccccc3)CC1)C2 [Example 56] .
Reply | 40000 to 100000 nM

Ask | I would be grateful if you could share the reported IC50 for Cn1ccc(OCC23CN(C(=O)N4CCCCC4)C(CNc4cccc5c(N)nccc45)(C2)C3)cc1=O [Example 54] .
Reply | 10 to 100 nM

Ask | I would be grateful if you could share the reported IC50 for C[C@@H](C(=O)N1CC2(COc3ccn(C)c(=O)c3)CC1(CNc1cccc3c(N)nccc13)C2)c1ccccc1 [Example 12] .
Reply | 10 to 100 nM

Ask | I would be grateful if you could share the reported IC50 for Cn1ccc(OCC23CN(C(=O)N4CCc5ccccc54)C(CNc4cccc5c(N)nccc45)(C2)C3)cc1=O [Example 34] .
Reply | 10 to 100 nM

Ask | I would be grateful if you could share the reported IC50 for Cn1ccc(OCC23CN(C(=O)CC4CCOCC4)C(CNc4cccc5c(N)nccc45)(C2)C3)cc1=O [Example 9] .
Reply | 10 to 100 nM

Ask | I would be grateful if you could share the reported IC50 for Cc1cc(OCC23CN(C(=O)NC4(c5ccccc5)CC4)C(CNc4ccc(N)nc4)(C2)C3)cc(=O)n1C [Example 58] .
Reply | 10000 to 40000 nM

Ask | I would be grateful if you could share the reported IC50 for Cc1cc(OCC23CN(C(=O)CC45CCC(CC4)CC5)C(CNc4cccc5c(N)nccc45)(C2)C3)cc(=O)n1C [Example 21] .
Reply | 10 to 100 nM

====

Listing: pIC50 of selected compounds
- Experimental Target: Human Factor XIIa (Homo sapiens, UniProt P00748)
- Construct: purchased Enzyme Research Laboratories
- Protocol Summary: Determination of FXIIa inhibition (in vitro IC50 assay, fluorogenic substrate H-DPro-Phe-Arg-AFC)
- Format: biochemical
- Test Conditions: human Factor XIIa; fluorogenic substrate H-DPro-Phe-Arg-AFC at Km concentration; 5 min, 25 °C; class symbols; read-out: Human FXIIa IC50
pIC50: −log10 of the molar value.

Ask | I would be grateful if you could share the reported pIC50 for Cc1cc(OCC23CN(C(=O)N(C)C[C@H]4CCOC4)C(CNc4cccc5c(N)nccc45)(C2)C3)cc(=O)n1C .
Reply | 7.00 to 8.00

Ask | I would be grateful if you could share the reported pIC50 for CC(=O)N1CCC(CC(=O)N2CC3(COc4ccn(C)c(=O)c4)CC2(CNc2cccc4c(N)nccc24)C3)CC1 .
Reply | 7.00 to 8.00

Ask | I would be grateful if you could share the reported pIC50 for Cn1ccc(OCC23CN(C(=O)NC4(c5ccccc5)COC4)C(CNc4cccc5c(N)nccc45)(C2)C3)cc1=O .
Reply | 8.00 to 9.00

Ask | I would be grateful if you could share the reported pIC50 for Cc1cc(OCC23CN(C(=O)N4CC(C5CCOCC5)C4)C(CNc4cccc5c(N)nccc45)(C2)C3)cc(=O)n1C .
Reply | 7.00 to 8.00

====

- Experimental Target: Human Factor XIIa (Homo sapiens, UniProt P00748)
- Construct: purchased Enzyme Research Laboratories
- Protocol Summary: Determination of FXIIa inhibition (in vitro IC50 assay, fluorogenic substrate H-DPro-Phe-Arg-AFC)
- Type: biochemical
- Test Conditions: human Factor XIIa; fluorogenic substrate H-DPro-Phe-Arg-AFC at Km concentration; 5 min, 25 °C; class symbols; read-out: Human FXIIa IC50
pIC50: −log10 of the molar value.
Listing: pIC50 of selected molecules

// below: answered molecules
{"Structure String": "Cc1cc(OCC23CN(C(=O)N4CC[C@@H](c5ccccc5)C4)C(CNc4cccc5c(N)nccc45)(C2)C3)cc(=O)n1C", "Experimental Target": "Human Factor XIIa (Homo sapiens, UniProt P00748)", "pIC50": "8.00 to 9.00"}
{"Structure String": "Cc1cc(OCC23CN(c4ccc(C5CC5)nc4)C(CNc4cccc5c(N)nccc45)(C2)C3)cc(=O)n1C", "Experimental Target": "Human Factor XIIa (Homo sapiens, UniProt P00748)", "pIC50": "7.00 to 8.00"}
{"Structure String": "Cn1ccc(OCC23CN(C(=O)N4CCOc5ccccc54)C(CNc4cccc5c(N)nccc45)(C2)C3)cc1=O", "Experimental Target": "Human Factor XIIa (Homo sapiens, UniProt P00748)", "pIC50": "7.00 to 8.00"}

Attention now turns to another entry.
Ask | // lookup pIC50 | system=Human Factor XIIa (Homo sapiens, UniProt P00748) | key= Cc1cc(OCC23CN(c4ccc(C5CC5)nn4)C(CNc4cccc5c(N)nccc45)(C2)C3)cc(=O)n1C
Reply | 7.00 to 8.00
